# protocolDescription: Phase 1 MAD CSF concentration of CT1812
# Format: in vivo, human
# runConditions: human, cerebrospinal fluid, oral; 560 mg daily; 1.5 hr post dose, Day 7 to Day 9
observedProperty: concentration at 1.5 h (ng/mL)

> print(dat)
                                 smilescode        observedproperty  reportedresult
1  CC(C)(C)Oc1cc(CCC(C)(C)N2Cc3ccc(S(C)(=O)=O)cc3C2)ccc1O  concentration at 1.5 h               8

----------
# protocolDescription: Phase 1 single ascending dose (SAD)/food-effect plasma pharmacokinetics
# Type: in vivo, human
# runConditions: human, plasma, oral, 90 mg, single 90 mg, fed (n = 6); read-out: t1/2 (mean) (converted)
# Experimental: Part A was a single ascending dose cohort study in which healthy, young subjects (less than 65 years old) received one dose of study drug in the morning after an overnight fast. […] This was assessed by analysis of variance (ANOVA) of log-transformed Cmax, AUC0-24, AUC0-48, and/or AUC0-inf, using a model with factors for treatment (fed status or age [young vs. elderly] status) and subject within sequence. […]
observedProperty: half-life (h)

> print(dat)
                                 smilescode  observedproperty  reportedresult
1  CC(C)(C)Oc1cc(CCC(C)(C)N2Cc3ccc(S(C)(=O)=O)cc3C2)ccc1O         half-life            11.6
